Assay: amyloid nucleation score (Sup35N fusion, yeast selection) (log enrichment); library NNK1; higher = more nucleation; inactive = no reads after selection;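 note: zero at mode of non-aggregating sequences after 7 days selection at 30°C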
Note that class boundaries on amyloid nucleation score are group 1 (below -0.09), group 2 (-0.09 to below 1), group 3 (1 or more)

Exam item: Band for RGIYWVSFVLSGRIIGWMVG ?
Marked response: group 2

Exam item: Band for LHLWCLQSFYMCWKCPPILE ?
Marked response: group 3

Exam item: Band for CYLLQWTSFCQQAFSNEMGW ?
Marked response: group 2

Exam item: Band for ILGRYNNAVLGVGSEQWSVG ?
Marked response: group 2

Exam item: Band for LRFLWRRRS ?
Marked response: group 2

Exam item: Band for ERIRTHIRPIGCRRNLMVGW ?
Marked response: group 3

Exam item: Band for SHLFQM ?
Marked response: group 2

Exam item: Band for GFAFSNVCIVAYYRYFSSRR ?
Marked response: group 3

Exam item: Band for VCVGNAETYMERNYV ?
Marked response: group 2

Exam item: Band for DDMVDVPFTMVGMWPYDSY ?
Marked response: group 1

Exam item: Band for LYAAYCRQGTTHAIR ?
Marked response: group 1

Exam item: Band for SCCWVSIDSNQCHRACTVRT ?
Marked response: group 1

Exam item: Band for IWYSDVGPTTN ?
Marked response: group 1

Exam item: Band for SFCNFQGVRFFL ?
Marked response: group 3

Exam item: Band for LLHCKVICRRCCVIWSSCSI ?
Marked response: group 3

Exam item: Band for KLREFAVLTLESGSFSVYCW ?
Marked response: group 1

###

Test: amyloid nucleation score (Sup35N fusion, yeast selection) (log enrichment); library NNK3; higher = more nucleation; inactive = no reads after selection
property: amyloid nucleation score

A selection of reference data follows.
>  <biopolymerSequence>
STVCWHMQRVASTVAL

>  <amyloid nucleation score>
inactive

$$$$
>  <biopolymerSequence>
GNSHLSCERSCNIKMCMSGG

>  <amyloid nucleation score>
inactive

$$$$
>  <biopolymerSequence>
LYFNVSTTIAIRIRSYSYRV

>  <amyloid nucleation score>
-0.299

$$$$
>  <biopolymerSequence>
LPHNIVLAKKTLKV

>  <amyloid nucleation score>
inactive

$$$$
>  <biopolymerSequence>
ILIWRSGCYWTSPTEGVFRF

>  <amyloid nucleation score>
0.572

$$$$
>  <biopolymerSequence>
VGEVGGYGEFAE

>  <amyloid nucleation score>
inactive

$$$$
>  <biopolymerSequence>
FLVNDYFV

>  <amyloid nucleation score>
inactive

$$$$
>  <biopolymerSequence>
VQGIPELALMLSRARGRGV

>  <amyloid nucleation score>
inactive

$$$$

// moving on: another record for amyloid nucleation score
Exam item: Sample LPEMGFFSLVDNWLAVAFSK — what was its amyloid nucleation score?
Marked response: 1.46

###

Experiment: amyloid nucleation score (Sup35N fusion, yeast selection) (log enrichment); library NNK2; higher = more nucleation; inactive = no reads after selection
Cut-off -0.1 on amyloid nucleation score, inclusive. At or above means TRUE; below means FALSE.

Exam item: Test whether the substance LASAFG records amyloid nucleation score of -0.1 or higher.
Marked response: FALSE

Exam item: Test whether the substance TLSTGIFLLHLAYSSLSIDS records amyloid nucleation score of -0.1 or higher.
Marked response: TRUE

Exam item: Test whether the substance ELLSYRRSIKYCMGLEEPWA records amyloid nucleation score of -0.1 or higher.
Marked response: FALSE

Exam item: Test whether the substance WFMNSNVLHYM records amyloid nucleation score of -0.1 or higher.
Marked response: TRUE

Exam item: Test whether the substance RRYHRR records amyloid nucleation score of -0.1 or higher.
Marked response: TRUE

Exam item: Test whether the substance FYFDGQLV records amyloid nucleation score of -0.1 or higher.
Marked response: FALSE

Exam item: Test whether the substance FSFYLGRKSMRWCNSCWYSW records amyloid nucleation score of -0.1 or higher.
Marked response: FALSE

Exam item: Test whether the substance KGIDKPIEGPSSKHLRFNCY records amyloid nucleation score of -0.1 or higher.
Marked response: TRUE

Exam item: Test whether the substance HICPFGCGYYLGEDKDAWSG records amyloid nucleation score of -0.1 or higher.
Marked response: FALSE

Exam item: Test whether the substance SVGQMQLT records amyloid nucleation score of -0.1 or higher.
Marked response: TRUE

Exam item: Test whether the substance DGFRGLGLFHTY records amyloid nucleation score of -0.1 or higher.
Marked response: FALSE

Exam item: Test whether the substance QTTVHLTSLHMAGSLCV records amyloid nucleation score of -0.1 or higher.
Marked response: TRUE

Exam item: Test whether the substance TAIYENYCMSVMWMLVVGRI records amyloid nucleation score of -0.1 or higher.
Marked response: FALSE

Exam item: Test whether the substance GVSVSVYHGWLVLDRMFHNS records amyloid nucleation score of -0.1 or higher.
Marked response: TRUE

Exam item: Test whether the substance WGMWCMFHCRVAS records amyloid nucleation score of -0.1 or higher.
Marked response: FALSE

Where do these numbers come from? They come from the supplement of paper PMC12042874.
